- test target: Carbonic anhydrase 14 (Homo sapiens) (UniProt Q9ULX7)
- Sequence (Q9ULX7 whole entry): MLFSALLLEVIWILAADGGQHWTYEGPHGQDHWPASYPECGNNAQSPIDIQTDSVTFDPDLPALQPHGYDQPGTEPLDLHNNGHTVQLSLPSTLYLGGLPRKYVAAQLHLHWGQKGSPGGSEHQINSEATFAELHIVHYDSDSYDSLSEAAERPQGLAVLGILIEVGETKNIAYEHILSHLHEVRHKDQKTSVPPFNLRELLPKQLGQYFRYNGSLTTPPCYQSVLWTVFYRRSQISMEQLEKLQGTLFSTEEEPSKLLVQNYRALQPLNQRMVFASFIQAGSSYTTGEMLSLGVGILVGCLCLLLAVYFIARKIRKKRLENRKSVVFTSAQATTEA
- assay summary: Activation of transmembrane human carbonic anhydrase-14 incubated for 15 mins prior to testing by stopped-flow CO2 hydrase assay
measured parameter: KA (µM)
API: value field is a number in µM; no unit string.

## Task Tell me the measured KA of COC(=O)[C@@H](N)Cc1nc[nH]c1Cl , please.
## Result 6.4

## Task Tell me the measured KA of COC(=O)[C@H](Cc1nc(Br)[nH]c1Br)NC(=O)CCNC(=O)OC(C)(C)C , please.
## Result 40.8

## Task Tell me the measured KA of CC(C)(C)OC(=O)NCCc1nc(Cl)[nH]c1Cl , please.
## Result 28.1

## Task Tell me the measured KA of COC(=O)[C@H](Cc1nc[nH]c1Cl)NC(=O)OC(C)(C)C , please.
## Result 24.1

## Task Tell me the measured KA of CC(C)(C)OC(=O)NCCc1nc[nH]c1Cl , please.
## Result 45.2

## Task Tell me the measured KA of CC(C)(C)OC(=O)NCCc1nc[nH]c1Br , please.
## Result 34.7

## Task Tell me the measured KA of COC(=O)[C@H](Cc1nc(I)[nH]c1I)NC(=O)OC(C)(C)C , please.
## Result 34.9

## Task Tell me the measured KA of COC(=O)[C@@H](N)Cc1nc[nH]c1I , please.
## Result 7.8

## Task Tell me the measured KA of NCCc1nc(Br)[nH]c1Br , please.
## Result 13.1

## Task Tell me the measured KA of COC(=O)[C@@H](N)Cc1nc(Cl)[nH]c1Cl , please.
## Result 20.6

## Task Tell me the measured KA of COC(=O)[C@H](Cc1nc[nH]c1Br)NC(=O)CCNC(=O)OC(C)(C)C , please.
## Result 36.5

## Task Tell me the measured KA of COC(=O)[C@@H](N)Cc1nc[nH]c1Br , please.
## Result 5.2

---

For each record, write down the corresponding KA.
- test target: Carbonic anhydrase 7 (Homo sapiens)
- assay summary: Activation of […] human carbonic anhydrase-7 incubated for 15 mins prior to testing by stopped-flow CO2 hydrase assay
API: value field is a number in µM; no unit string.

## Task Tell me the measured KA of COC(=O)[C@@H](N)Cc1nc(Cl)[nH]c1Cl , please.
## Result 24.9

## Task Tell me the measured KA of CC(C)(C)OC(=O)NCCc1nc[nH]c1I , please.
## Result 21.5

## Task Tell me the measured KA of COC(=O)[C@@H](N)Cc1nc[nH]c1Br , please.
## Result 12.3

## Task Tell me the measured KA of COC(=O)[C@@H](N)Cc1c[nH]cn1 , please.
## Result 0.88

## Task Tell me the measured KA of COC(=O)[C@H](Cc1nc[nH]c1I)NC(=O)OC(C)(C)C , please.
## Result 38.5

## Task Tell me the measured KA of NCCc1nc[nH]c1Br , please.
## Result 5.2

## Task Tell me the measured KA of NCCc1nc[nH]c1I , please.
## Result 7.6

## Task Tell me the measured KA of COC(=O)[C@H](Cc1nc[nH]c1I)NC(=O)CCNC(=O)OC(C)(C)C , please.
## Result 0.81

## Task Tell me the measured KA of CC(C)(C)OC(=O)NCCc1nc(Cl)[nH]c1Cl , please.
## Result 13.1

## Task Tell me the measured KA of COC(=O)[C@H](Cc1nc[nH]c1Cl)NC(=O)CCN , please.
## Result 0.013

## Task Tell me the measured KA of CC(C)(C)OC(=O)NCCc1nc(I)[nH]c1I , please.
## Result 45.6

## Task Tell me the measured KA of CC(C)(C)OC(=O)NCCc1nc[nH]c1Cl , please.
## Result 24.9

## Task Tell me the measured KA of NCCc1nc(I)[nH]c1I , please.
## Result 1.39
